List of Ki tested on GSK-3β (AA 1–420) (Homo sapiens).

Worked cases, Ki given:
CCNc1ncc(C)c(-c2c[nH]c(C(=O)NC(CO)c3cccc(C(F)(F)F)c3)c2)n1 (centres unmarked) = > 1000 nM
Cc1cnc(NCC2CCCO2)nc1-c1c[nH]c(C(=O)NC(CO)c2ccccc2)c1 (centres unmarked) = < 100 nM
CNc1ncc(C)c(-c2c[nH]c(C(=O)NC(CO)c3ccc(F)c(Cl)c3)c2)n1 (centres unmarked) = > 1000 nM

Given Cc1cnc(NC2CCC(O)CC2)nc1-c1c[nH]c(C(=O)NC(CO)c2ccccc2)c1 (centres unmarked) , respond with its Ki.
< 100 nM

Given CCNc1ncc(C)c(-c2c[nH]c(C(=O)NC(CCO)c3ccccc3)c2)n1 (centres unmarked) , respond with its Ki.
> 1000 nM

Given Cc1cnc(NC2CCCCC2O)nc1-c1c[nH]c(C(=O)NC(CO)c2ccccc2)c1 (centres unmarked) , respond with its Ki.
< 100 nM

Given Cc1cnc(Nc2cccnc2)nc1-c1c[nH]c(C(=O)NC(CO)c2ccccc2)c1 (centres unmarked) , respond with its Ki.
< 100 nM

Given Cc1ccc(C(CO)NC(=O)c2cc(-c3nc(Nc4cccc(F)c4)ncc3C)c[nH]2)cc1F (centres unmarked) , respond with its Ki.
< 100 nM

---

Documented pKi across a set of compounds
Measurement target: ERK2 (Homo sapiens)
Assay summary: ERK2 inhibition assay (spectrophotometric coupled-enzyme assay)
Assay type: biochemical
Condition label: read-out: ERK2 Inhibitory Activity (Ki class D-F)
pKi: −log10 of the molar value.

CC(C(O)c1ccccc1)N(C)C(=O)c1cc(-c2ccnc(N)n2)c[nH]1 (stereo not shown) [III-a-180] = < 6.00
Cc1ccc(Nc2ncc(C)c(-c3c[nH]c(C(=O)NC(CO)c4ccccc4)c3)n2)cc1C (stereo not shown) [III-a-151] = > 7.00

Given CCNc1ncc(C)c(-c2c[nH]c(C(=O)NC(CCO)c3ccccc3)c2)n1 (stereo not shown) [III-a-173] , respond with its pKi.
6.00 to 7.00

Given CCONc1ncc(C)c(-c2c[nH]c(C(=O)N[C@H](CO)c3ccccc3)c2)n1 [III-a-195] , respond with its pKi.
> 7.00

---

List of pKi tested on GSK-3β (AA 1–420) (Homo sapiens, UniProt P49841).
Sequence (P49841 whole entry, species assumed, the tested form may be a part): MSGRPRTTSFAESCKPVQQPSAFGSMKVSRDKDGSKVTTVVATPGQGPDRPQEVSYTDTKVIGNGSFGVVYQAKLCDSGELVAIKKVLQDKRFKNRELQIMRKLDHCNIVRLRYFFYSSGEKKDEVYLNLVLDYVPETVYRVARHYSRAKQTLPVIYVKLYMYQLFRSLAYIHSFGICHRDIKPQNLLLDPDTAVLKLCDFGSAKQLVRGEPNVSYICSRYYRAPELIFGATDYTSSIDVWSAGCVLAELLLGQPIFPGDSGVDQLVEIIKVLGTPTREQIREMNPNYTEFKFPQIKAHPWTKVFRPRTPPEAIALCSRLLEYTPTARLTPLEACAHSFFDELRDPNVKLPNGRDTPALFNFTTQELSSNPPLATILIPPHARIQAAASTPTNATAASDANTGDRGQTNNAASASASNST
pKi: −log10 of the molar value.

Cc1cnc(NOC(C)C)nc1-c1c[nH]c(C(=O)NC(CO)c2ccccc2)c1 (stereo not shown) = 6.00 to 7.00

Given Cc1ccccc1Nc1ncc(C)c(-c2c[nH]c(C(=O)NC(CO)c3cccc(Cl)c3)c2)n1 (stereo not shown) , respond with its pKi.
> 7.00

Given Cc1cnc(Nc2ccccc2Cl)nc1-c1c[nH]c(C(=O)NC(CO)c2cccc(C(F)(F)F)c2)c1 (stereo not shown) , respond with its pKi.
< 6.00

Given Cc1cnc(NCC(C)O)nc1-c1c[nH]c(C(=O)NC(CO)c2ccccc2)c1 (stereo not shown) , respond with its pKi.
6.00 to 7.00

---

Measurement target: ERK2 (Homo sapiens, UniProt P28482)
Sequence (P28482 whole entry): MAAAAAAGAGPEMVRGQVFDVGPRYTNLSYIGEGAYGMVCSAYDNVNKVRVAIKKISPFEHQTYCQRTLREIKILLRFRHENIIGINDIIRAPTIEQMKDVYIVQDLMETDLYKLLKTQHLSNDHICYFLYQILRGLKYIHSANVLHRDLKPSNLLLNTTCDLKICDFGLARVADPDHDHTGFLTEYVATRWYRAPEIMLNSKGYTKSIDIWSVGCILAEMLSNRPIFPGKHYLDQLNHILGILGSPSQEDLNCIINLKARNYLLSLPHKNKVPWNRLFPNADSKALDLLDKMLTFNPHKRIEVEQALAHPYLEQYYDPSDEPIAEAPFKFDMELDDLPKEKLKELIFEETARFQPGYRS
Assay summary: ERK2 inhibition assay (spectrophotometric coupled-enzyme assay)
Type: biochemical
Condition label: read-out: ERK2 Inhibitory Activity (Ki class D-F)
pKi: −log10 of the molar value.
Endpoint name: pKi

CCNc1ncc(C)c(-c2c[nH]c(C(=O)NC(C)C(O)c3ccccc3)c2)n1 (centres unmarked) = < 6.00

Given Cc1cnc(NC(CO)c2ccc(F)c(Cl)c2)nc1-c1c[nH]c(C(=O)NC(CO)c2ccccc2)c1 (centres unmarked) , respond with its pKi.
> 7.00

Given Cc1cnc(NCC(C)O)nc1-c1c[nH]c(C(=O)NC(CO)c2ccccc2)c1 (centres unmarked) [III-a-177] , respond with its pKi.
> 7.00

Given CCNc1ncc(C)c(-c2c[nH]c(C(=O)NC(CO)c3cc(F)cc(C(F)(F)F)c3)c2)n1 (centres unmarked) , respond with its pKi.
6.00 to 7.00
